Where these numbers come from: patent US8669249B2

- assaySystem: catalytic domain of Human PARP (Homo sapiens, UniProt P09874)
- Construct: The catalytic domain of Human PARP was cloned and prepared; made in house
- Sequence (P09874 788-1014 limits assumed): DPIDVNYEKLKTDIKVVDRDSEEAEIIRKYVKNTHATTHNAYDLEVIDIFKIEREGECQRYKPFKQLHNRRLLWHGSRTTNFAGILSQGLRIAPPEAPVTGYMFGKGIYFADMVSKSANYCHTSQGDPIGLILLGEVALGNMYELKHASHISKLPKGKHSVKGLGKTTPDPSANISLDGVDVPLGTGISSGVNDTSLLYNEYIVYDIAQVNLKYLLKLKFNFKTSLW
- assayComment: Biacore surface plasmon resonance affinity assay
- Type: binding
- cond: pKD=-log10 KD, KD in mol/L; Biacore T100, 25° C.; read-out: pKD (converted)
testReadout: Kd

A selection of reference data follows.
>>> readoutvalue("CC1Oc2ccc(CN3CCN(C4CCCC4)CC3)cc2NC1=O (centres unmarked) [Compound 40]")
"126 to 1000 nM"
>>> readoutvalue("CC1Oc2ccc(CN3CCN(c4cccc(C(F)(F)F)c4)CC3)cc2NC1=O (centres unmarked) [Compound 221]")
"1260 to 10000 nM"
>>> readoutvalue("O=C1Nc2cc(CN3CCN(c4nc5ccccc5[nH]4)CC3)ccc2OC1F (centres unmarked) [Compound 99]")
"126 to 1000 nM"
>>> readoutvalue("CC1Oc2ccc(CN(C)Cc3ccncc3)cc2NC1=O (centres unmarked) [Compound 66]")
"≥ 100000 nM"
>>> readoutvalue("CCCNC(=O)CN1CCN(Cc2ccc3c(c2)NC(=O)C(C)O3)CC1 (centres unmarked) [Compound 175]")
"> 10000 nM"

**Query** Fill blank: measured Kd of the compound CC1Oc2c(F)cc(CN3CCN(c4ccc(C#N)cn4)CC3)cc2NC1=O (centres unmarked) [Compound 267] is ____.
**Result** ≤ 10 nM

**Query** Proceed to CC1Oc2ccc(S(=O)(=O)N3CCC(c4ccccc4)CC3)cc2NC1=O (centres unmarked) [Compound 121]
**Result** > 1000 nM

**Query** Proceed to O=C1COc2ccc(C(=O)N3CCOCC3)cc2N1 [Compound 109]
**Result** 1260 to 10000 nM

---

- assaySystem: catalytic domain of Human PARP (Homo sapiens)
- Construct: The catalytic domain of Human PARP was cloned and prepared; made in house
- assayComment: Biacore surface plasmon resonance affinity assay
- Assay type: binding
- cond: pKD=-log10 KD, KD in mol/L; Biacore T100, 25° C.; read-out: pKD (converted)
testReadout: Kd

A selection of reference data follows.
>>> readoutvalue("CC1Oc2ccc(CN3CCCc4ccccc43)cc2NC1=O (stereo not drawn)")
"> 10 µM"
>>> readoutvalue("CC1Oc2ccc(CN3CCC(c4ccc(C(F)(F)F)cc4)CC3)cc2NC1=O (stereo not drawn)")
"0.126 to 1 µM"
>>> readoutvalue("O=C1COc2ccc(C(=O)NCc3ccccc3)cc2N1")
"≥ 100 µM"
>>> readoutvalue("CCC1Oc2ccc(CN3CC=C(c4ccc(Cl)cc4)CC3)cc2NC1=O (stereo not drawn)")
"≥ 100 µM"
>>> readoutvalue("CN(C)C1CCN(C(=O)c2ccc3c(c2)NC(=O)CO3)CC1")
"≥ 100 µM"

Continue with the next compound.
**Query** Fill blank: measured Kd of the compound CNC(=O)c1ccc(N2CCN(Cc3ccc4c(c3)NC(=O)C(C)O4)CC2)nc1 (stereo not drawn) is ____.
**Result** ≤ 0.01 µM

---

- assaySystem: catalytic domain of Human PARP (Homo sapiens, UniProt P09874)
- Construct: The catalytic domain of Human PARP was cloned and prepared; made in house
- assayComment: Biacore surface plasmon resonance affinity assay
- Assay type: binding
- cond: pKD=-log10 KD, KD in mol/L; Biacore T100, 25° C.; read-out: pKD (converted)
testReadout: Kd

>>> readoutvalue("COc1cc(CN2CCN(c3ccc(C(=O)O)cc3)CC2)cc2c1OC(C)C(=O)N2 (stereo not drawn)")
"0.126 to 1 µM"

Continue with the next compound.
**Query** Fill blank: measured Kd of the compound CCNC(=O)CN1CCN(Cc2ccc3c(c2)NC(=O)C(C)O3)CC1 (stereo not drawn) is ____.
**Result** > 10 µM

---

- assaySystem: catalytic domain of Human PARP (Homo sapiens)
- Construct: The catalytic domain of Human PARP was cloned and prepared; made in house
- assayComment: Biacore surface plasmon resonance affinity assay
- Type: binding
- cond: pKD=-log10 KD, KD in mol/L; Biacore T100, 25° C.; read-out: pKD (converted)
testReadout: Kd

A selection of reference data follows.
>>> readoutvalue("CCC1Oc2ccc(CN3CCN(c4ccccc4O)CC3)cc2NC1=O (stereo not drawn)")
"≤ 0.01 µM"
>>> readoutvalue("CCC1Oc2ccc(CN3CCC(c4ccccc4N)CC3)cc2NC1=O (stereo not drawn)")
"12.6 to 79.4 µM"
>>> readoutvalue("CC1Oc2ccc(CN3CCN(Cc4cccc(Br)c4)CC3)cc2NC1=O (stereo not drawn)")
"1.26 to 10 µM"
>>> readoutvalue("CC1Oc2c(F)cc(CN3CCN(c4ccc(C(=O)NC5CC5)cc4)CC3)cc2NC1=O (stereo not drawn)")
"< 0.0316 µM"
>>> readoutvalue("O=C1COc2ccc(C(=O)CN3CCC(c4ccccc4)CC3)cc2N1")
"12.6 to 79.4 µM"
>>> readoutvalue("Cc1cc(CN2CC=C(c3ccc(Cl)cc3)CC2)cc2c1OC(C)C(=O)N2 (stereo not drawn)")
"> 10 µM"
>>> readoutvalue("CC1Oc2ccc(CN3CCCc4cc(O)ccc43)cc2NC1=O (stereo not drawn)")
"> 10 µM"
>>> readoutvalue("CC1Oc2ccc(CN3Cc4ccc(F)cc4C3)cc2NC1=O (stereo not drawn)")
"≤ 0.01 µM"

Continue with the next compound.
**Query** Record lookup: for catalytic domain of Human PARP (Homo sapiens), what Kd belongs to CC1Oc2ccc(CN3CCN(c4ccc(N)cc4)CC3)cc2NC1=O (stereo not drawn) ?
**Result** 0.0126 to 0.1 µM

---

- assaySystem: catalytic domain of Human PARP (Homo sapiens)
- Construct: The catalytic domain of Human PARP was cloned and prepared; made in house
- assayComment: Biacore surface plasmon resonance affinity assay
- Assay type: binding
- cond: pKD=-log10 KD, KD in mol/L; Biacore T100, 25° C.; read-out: pKD (converted)
testReadout: Kd

A selection of reference data follows.
>>> readoutvalue("CC1Oc2ccc(-c3ccc(C(N)=O)cc3)cc2NC1=O (stereo not shown)")
"> 10 µM"
>>> readoutvalue("CC1Oc2ccc(CN(C)CC(=O)N(C)Cc3ccccc3)cc2NC1=O (stereo not shown)")
"12.6 to 79.4 µM"
>>> readoutvalue("CC1Oc2cc(CN3CCN(c4ccccc4O)CC3)ccc2NC1=O (stereo not shown)")
"12.6 to 79.4 µM"

**Query** Fill blank: measured Kd of the molecule Cc1ccc(C2CCN(Cc3ccc4c(c3)NC(=O)C(C)O4)CC2)cc1 (stereo not shown) is ____.
**Result** 0.126 to 1 µM

---

- assaySystem: catalytic domain of Human PARP (Homo sapiens)
- Construct: The catalytic domain of Human PARP was cloned and prepared; made in house
- assayComment: Biacore surface plasmon resonance affinity assay
- Type: binding
- cond: pKD=-log10 KD, KD in mol/L; Biacore T100, 25° C.; read-out: pKD (converted)
testReadout: Kd

A selection of reference data follows.
>>> readoutvalue("CC1Oc2ccc(CN(C)CC(=O)N(C)Cc3ccc(Cl)cc3)cc2NC1=O (stereo not drawn)")
"≥ 100 µM"
>>> readoutvalue("CC1Oc2cc(CN(C)CCc3ccccc3)ccc2NC1=O (stereo not drawn)")
"1.26 to 10 µM"
>>> readoutvalue("CCC1Oc2ccc(CN3CCC(c4nc5ccccc5[nH]4)CC3)cc2NC1=O (stereo not drawn)")
"≥ 100 µM"

Continue with the next compound.
**Query** Record lookup: for catalytic domain of Human PARP (Homo sapiens), what Kd belongs to Cc1cc(CN2CCN(c3ccc(C#N)cc3)CC2)cc2c1OC(C)C(=O)N2 (stereo not drawn) ?
**Result** ≤ 0.01 µM

---

Measured Kd accompanies every entry in the list below.
- assaySystem: catalytic domain of Human PARP (Homo sapiens)
- Construct: The catalytic domain of Human PARP was cloned and prepared; made in house
- assayComment: Biacore surface plasmon resonance affinity assay
- Assay type: binding
- cond: pKD=-log10 KD, KD in mol/L; Biacore T100, 25° C.; read-out: pKD (converted)

A selection of reference data follows.
>>> readoutvalue("COC(=O)c1cccc(C2CCN(Cc3ccc4c(c3)NC(=O)C(C)O4)CC2)c1 (centres unmarked) [Compound 212]")
"≥ 100 µM"
>>> readoutvalue("Cc1cc(CN2CCN(c3ccc(C(=O)NC4CC4)cc3)CC2)cc2c1OC(C)C(=O)N2 (centres unmarked) [Compound 259]")
"≤ 0.01 µM"
>>> readoutvalue("CC(=O)Nc1ccc2c(c1)CN(Cc1ccc3c(c1)NC(=O)C(C)O3)C2 (centres unmarked) [Compound 242]")
"1.26 to 10 µM"
>>> readoutvalue("O=C1COc2ccc(CN3CCOCC3)cc2N1 [Compound 26]")
"1.26 to 10 µM"
>>> readoutvalue("CC1Oc2ccc(CN3CCC(c4ccccc4N)CC3)cc2NC1=O (centres unmarked) [Compound 211]")
"≥ 100 µM"
>>> readoutvalue("COc1ccc2c(c1)CCN(Cc1ccc3c(c1)NC(=O)C(C)O3)C2 (centres unmarked) [Compound 77]")
"0.126 to 1 µM"

**Query** Fill blank: measured Kd of the molecule O=C1COc2ccc(S(=O)(=O)N3CCOCC3)cc2N1 [Compound 116] is ____.
**Result** 12.6 to 79.4 µM

**Query** Proceed to CCC1Oc2ccc(CN3CCC(c4ccc(Cl)cc4)CC3)cc2NC1=O (centres unmarked) [Compound 194]
**Result** ≥ 100 µM

**Query** Proceed to COC(=O)CN1CCN(Cc2ccc3c(c2)NC(=O)C(C)O3)CC1=O (centres unmarked) [Compound 78]
**Result** 1.26 to 10 µM

**Query** Proceed to CC1Oc2ccc(CN3CCN(CC(=O)NC4CC4)CC3)cc2NC1=O (centres unmarked) [Compound 176]
**Result** > 10 µM

**Query** Proceed to CC1Oc2ccc(CN3CCc4cc(Br)ccc4C3)cc2NC1=O (centres unmarked) [Compound 81]
**Result** 0.0126 to 0.1 µM
